Provide the reported GI50 of each item.
Test system: HOP-92
Assay: NCI tumour cell line growth inhibition, 48 h
Activity calls are given as the source filed them. Cut-off read from the data, not from the text of the source: active = GI50 up to about 1.1 µM and inactive = higher.

// query Reported GI50 for CC(=O)C1=C(C)Cn2c(=O)c3ccccc3c(=O)n2C1 : what is it?
// result > 100 µM (inactive)

// query Param item: Oc1cc(CF)nc(S)n1
// result > 100 µM (inactive)

// query Query O=C(CCC(=O)c1ccc(Cl)cc1)NO next
// result > 100 µM (inactive)

// query Entry to check: C=C(CN(C)C)C(=O)c1cc(C)ccc1C
// result 2.81 µM (inactive)

// query Thanks! And NCCCNCCSSCCCCS(=O)O ?
// result > 100 µM (inactive)

// query Please do the same for O=C(c1ccccc1)n1cc(-c2ccccc2)c2c(=O)nc[nH]c21 as well.
// result > 100 µM (inactive)

// query How about this compound: Cc1cccc(Nc2cn(CCOc3ccccc3)c(=O)[nH]c2=O)c1
// result 35.6 µM (inactive)

// query Quick one: c1cc2nnc1SCCSCCSc1ccc(nn1)SCCSCCS2
// result > 100 µM (inactive)

// query Another compound to check: CC(C)C1SCc2nc3ccccc3n21 (configuration not stated)
// result 16.3 µM (inactive)

// query Can you handle COc1ccc(C2c3cc4c(cc3OC(O)(CO)C2C(=O)O)OCO4)c(OC)c1OC.COc1ccc(C2c3cc4c(cc3OC3(O)COC(=O)C23)OCO4)c(OC)c1OC (configuration not stated) next?
// result 29.2 µM (inactive)

// query CC(C)NC(=O)OCc1c(COC(=O)NC(C)C)c(-c2cc[n+](COC(=O)C(C)C)cc2)n2c1CCC2 ?
// result 69.7 µM (inactive)

// query Also O=C1c2ccccc2-c2cc([N+](=O)[O-])c([N+](=O)[O-])cc21 , if possible.
// result 1.72 µM (inactive)

---

Tested on: HCT-116
Assay: NCI tumour cell line growth inhibition, 48 h
Calls of active or inactive are those of the source. Cut-off read from the data, not from the text of the source: active = GI50 up to about 1.1 µM and inactive = higher.
Response enum: 1 (yes) (active), 0 (no) (inactive)

// query Entry CCOC1C=CCCO1 (configuration not stated) : call = ?
// result 0 (no)

// query Repeat for the following compound: Nc1nc(-c2ccccc2)c(-c2ccccc2)c(-c2nc(N)nc(-c3ccccc3)c2-c2ccccc2)n1
// result 0 (no)

// query Then this compound: CC(C)(C)c1cc(C2=NNC(c3ccccc3)C2)cc(C(C)(C)C)c1O (configuration not stated)
// result 0 (no)

// query Quick one: CC(C)C1SCc2nc3ccccc3n21 (configuration not stated)
// result 0 (no)

// query Then what about the compound COc1cc(C2C(C(=O)O)=C(CO)Oc3cc4c(cc32)OCO4)cc(OC)c1OC (configuration not stated) ?
// result 0 (no)

// query Now give it for COc1ccc(CCN2CCN(CCCc3ccccc3)CC2)cc1 too.
// result 0 (no)

// query Could you do the same for CCOc1cc2c[n+](C)c3c4cc(OC)c(OC)cc4ccc3c2cc1OC , please?
// result 0 (no)

// query Next compound: O=C1C=CC2CCC1C2 (configuration not stated)
// result 0 (no)

// query And what about the compound CC[C@H](NC1=C(Cl)C(=O)c2c(O)ccc(O)c2C1=O)C(=O)OC ?
// result 0 (no)

// query CC(NC(=O)C(Cc1ccc(OC(=O)c2ccccc2)cc1)NC(=O)OC(C)(C)C)C(=O)NCC(=O)NC(Cc1ccccc1)C(=O)NN (configuration not stated) ?
// result 0 (no)

// query Also check CC(=O)/C=N/CC(=O)O
// result 0 (no)

// query How about this compound: COc1ccc(COCC[C@H](C)OC2OC(CO)C(O)C(O)C2O)cc1 (some centres not stated)
// result 0 (no)

// query Also, O=C1C=CC(=C(c2ccccc2)c2ccc(O)cc2)C=C1 please.
// result 0 (no)

// query Quick one: c1ccc(C(/C(=N/c2ccc(Cc3ccc(/N=C(\C(c4ccccc4)c4ccccc4)N4CC4)cc3)cc2)N2CC2)c2ccccc2)cc1
// result 0 (no)

// query Can you check C[C@]12CC[C@H](O)C=C1CC[C@@H]1[C@@H]2CC[C@]2(C)C(c3ccc(=O)oc3)CC[C@]12O (some centres not stated) next?
// result 1 (yes)

// query Then CC(C)c1cccc(C(C)C)c1NC(=O)C(=O)CC(=O)CC(c1ccccc1)c1c(O)oc2ccccc2c1=O (configuration not stated) ?
// result 0 (no)

// query Please give the result for Cn1ncc2c(c1=O)Nc1ccccc1S2(=O)=O too.
// result 0 (no)

// query How about this compound: O=C(O)C1(Cc2ccc3c(c2)CCC3)Cc2ccccc2C1=O (configuration not stated)
// result 0 (no)

// query // query: COc1nc2ccc(CNc3ccc(C(=O)O)cc3)cc2nc1OC
// result 0 (no)

// query Input Nc1nc2c(ncn2C2OC(CO)C(O)C2N)c(=O)[nH]1 (configuration not stated)
// result 0 (no)

// query How about COc1ccc(-c2nc(N)c3ncn(C4OC(CO)C(O)C4O)c3n2)cc1 (configuration not stated) ?
// result 0 (no)

// query Entry NC(=O)c1cc(N2CC2)c([N+](=O)[O-])cc1[N+](=O)[O-] please
// result 0 (no)

---

Can you tell me GI50 for the items I'm about to list?
Test system: OVCAR-8
Assay: NCI tumour cell line growth inhibition, 48 h
Calls of active or inactive are those of the source. No stated cut-off is given here; in the data, active = GI50 up to about 1.1 µM and inactive = higher.

// query Give recorded GI50 with OVCAR-8 for the following molecule: Nc1nc(-c2ccccc2)c(-c2ccccc2)c(-c2nc(N)nc(-c3ccccc3)c2-c2ccccc2)n1
// result > 100 µM (inactive)

// query Do the same for O=C1/C(=C/c2ccc(Cl)cc2)CNC/C1=C\c1ccc(Cl)cc1 please
// result 3.6 µM (inactive)

// query Try this molecule next: Oc1ccc(Cl)cc1/N=N\c1c(O)ccc2ccccc12
// result > 100 µM (inactive)

// query Same thing, different molecule: O=C1NC(S(=O)(=O)O)=NNC12c1ccccc1-c1ccccc12
// result > 10 µM (inactive)

// query One more molecule: CC(C)c1cccc(C(C)C)c1NC(=O)C(=O)CC(=O)CC(c1ccccc1)c1c(O)oc2ccccc2c1=O (stereo not given)
// result > 100 µM (inactive)

// query What do we get for O=C(O)CCCCC1CCSS1 (stereo not drawn) [LIPOIC ACID, ALPHA] ?
// result > 100 µM (inactive)

// query Then this molecule: Cc1nn(-c2ccccc2)c2c1C(c1cc3ccccc3nc1Cl)NC(=S)N2 (stereo not given)
// result 27.9 µM (inactive)

// query Now consider CC(C)N/C(=N\C#N)NS(=O)(=O)c1cnccc1NC1CCCCCCC1 and answer again.
// result > 100 µM (inactive)

// query Thanks! And Clc1ccc(Cl)c(Nc2ccnc(SCc3ccccc3)n2)c1 ?
// result > 100 µM (inactive)

// query Okay, and CCCSc1ccc2[nH]c(/N=C/c3ccco3)cc2c1 ?
// result 31.5 µM (inactive)

---

Assign GI50 to each entry below.
Test system: K562
Test: NCI tumour cell line growth inhibition, 48 h
The source made the active and inactive calls. Rule as the data show it: active = GI50 up to about 1.1 µM and inactive = higher.

// query Reported GI50 for COC(=O)NN(C(=O)OC)c1c(-c2ccccc2)nc(SC)n1N : what is it?
// result > 100 µM (inactive)

// query Could you do the same for COC1=C(Br)C(=O)c2nc(C)ccc2C1=O , please?
// result 8.67 µM (inactive)

// query Could you do the same for Oc1ccccc1/C=N/N1C(=S)N(c2ccccc2)C(=N\c2ccccc2)/C1=N/c1ccccc1 , please?
// result 28.6 µM (inactive)

// query What would you report for O=C1NN=C(c2ccc(Cl)cc2)CC1C1C(=O)N(c2ccccc2)N=C1c1ccccc1 (configuration not stated) ?
// result 30 µM (inactive)

// query Record: O=C(O)c1ccccc1/C=N/N=C1c2ccccc2-c2ccccc21
// result 32.1 µM (inactive)

// query What do you get for COc1ccc([C@@H]2OC(=O)C3C2C(=O)O[C@H]3c2ccc(OC)c(OC)c2)cc1OC (some centres not stated) ?
// result > 100 µM (inactive)

// query Next compound up: CN(C)CCCN1c2ccc([N+](=O)[O-])cc2CCc2cccc([N+](=O)[O-])c21
// result 14.8 µM (inactive)

// query Follow-up item: CCCCCCCCCCCCOC1C(COCCN2CCCC2)OC2OC(C)(C)OC21 (configuration not stated)
// result 1.23 µM (inactive)

// query Same for COc1cc2c(cc1OC)C1c3ccccc3CCN1CCC2.[O-][Cl+3]([O-])([O-])O (configuration not stated)
// result 76 µM (inactive)

// query Now consider C=C1C(=O)OC2C1CC(OC(C)=O)/C(C)=C/CCC1(C)OC21 (configuration not stated) .
// result > 100 µM (inactive)

// query Thanks! And CC1(C)N=C(N)N=C(N)N1c1ccc(OCCCOc2ccccc2)c(Cl)c1 ?
// result 2.48 µM (inactive)

// query Entry O=C(CCC(=O)c1ccc(Cl)cc1)NO please
// result > 100 µM (inactive)

// query Also CC1(C)OC(COCCOCCCCCO)C(COCCOCCCCCO)O1 (configuration not stated) ?
// result > 100 µM (inactive)

// query And then CC(NC(C#N)CC12CC3CC(CC(C3)C1)C2)c1ccccc1 (configuration not stated) , what is it?
// result 23.1 µM (inactive)

// query Try this compound too: CC(C)C1CN1CC(O)Cn1ccnc1[N+](=O)[O-] (configuration not stated)
// result > 100 µM (inactive)

// query Field entry: C=CCn1c(=O)c(C)cn(COCCO)c1=O
// result > 100 µM (inactive)

// query Another compound to check: Cc1ccccc1NC(=O)Cc1nc2ccccc2s1
// result 18.3 µM (inactive)

// query Further, for CCc1cccc(CC)c1Nc1nc2c(s1)C(=O)c1ccccc1C2=O ?
// result 28 µM (inactive)

// query Proceed to CCOC(=O)CC1(Cc2ccc(OCc3ccccc3)cc2)C(=O)OC(c2ccccc2)N1C(=O)c1ccccc1 (configuration not stated)
// result > 100 µM (inactive)

// query What do you get for N#Cc1ccc(CSC2=C(c3ccc(Cl)cc3)S/C(=C3\SC(SCc4ccc(C#N)cc4)=C(c4ccc(Cl)cc4)S3)S2)cc1 ?
// result > 100 µM (inactive)

// query Moving on to the next compound: O=c1c(-c2ccccc2)c(SCCO)n(-c2ccccc2)c(=S)n1-c1ccccc1
// result > 100 µM (inactive)

// query And O=CN/C=C/c1cccc(O)c1 ?
// result > 75.7 µM (inactive)

Attribution: ChEMBL document CHEMBL1201862
